Tested on: intestinal alkaline phosphatase [Mus musculus]
Experiment: mouse intestinal phosphatase enzyme activation – biochemical, luminescence, single concentration, confirmation (AID 434970)
Conditions: purified mouse IAP, CDP-Star luminescence, 30 min, at 10 µM
Screen size: about 11,000 compounds; about 310 (2.8%) were called active. No stated cut-off is given here; in the data, active means activity change below about -85%; inactive means the rest. What follows is part of a selection rich in actives, with near analogues and random picks from the rest.
Classes used: True for active, False for inactive

[[record]]
compound = "COc1ccc(NC(=O)Nc2ccc3c(c2)C(=O)N([C@H](C)CO)C[C@H](C)[C@@H](CN(C)C(=O)Nc2ccccc2)O3)cc1"
tgt = "intestinal alkaline phosphatase [Mus musculus]"
answer_label = "False"

[[record]]
compound = "C[C@H](CO)N1C[C@H](C)[C@@H](CN(C)C(=O)Nc2ccccc2)Oc2ccc(NC(=O)Nc3ccccc3)cc2C1=O"
tgt = "intestinal alkaline phosphatase [Mus musculus]"
answer_label = "True"

[[record]]
compound = "C[C@H](CO)N1C[C@H](C)[C@@H](CN(C)C(=O)Nc2ccccc2)Oc2ccc(NC(=O)NC3CCCCC3)cc2C1=O"
tgt = "intestinal alkaline phosphatase [Mus musculus]"
answer_label = "False"

[[record]]
compound = "C=CCn1c(=O)c2ccccc2n2c(Sc3nnnn3-c3ccccc3)nnc12"
tgt = "intestinal alkaline phosphatase [Mus musculus]"
answer_label = "False"

[[record]]
compound = "C[C@H](CO)N1C[C@H](C)[C@@H](CN(C)C(=O)Nc2ccc3c(c2)OCO3)Oc2ccc(NC(=O)Nc3ccc4c(c3)OCO4)cc2C1=O"
tgt = "intestinal alkaline phosphatase [Mus musculus]"
answer_label = "False"

[[record]]
compound = "COc1ccc(NC(=O)Nc2ccc3c(c2)C(=O)N([C@H](C)CO)C[C@H](C)[C@@H](CN(C)C(=O)NC2CCCCC2)O3)cc1"
tgt = "intestinal alkaline phosphatase [Mus musculus]"
answer_label = "False"

[[record]]
compound = "COc1ccc(Cl)cc1NC(=O)C1CCCO1 (stereo not drawn)"
tgt = "intestinal alkaline phosphatase [Mus musculus]"
answer_label = "False"

[[record]]
compound = "C[C@H](CO)N1C[C@H](C)[C@@H](CN(C)C(=O)Nc2ccccc2)Oc2ccc(NC(=O)Nc3ccc4c(c3)OCO4)cc2C1=O"
tgt = "intestinal alkaline phosphatase [Mus musculus]"
answer_label = "True"


====

System: intestinal alkaline phosphatase [Mus musculus]
Test: mouse intestinal phosphatase enzyme activation – biochemical, luminescence, single concentration, confirmation (AID 434970)
Conditions: purified mouse IAP, CDP-Star luminescence, 30 min, at 10 µM
The campaign covered roughly 11,000 compounds. About 310 (2.8%) were called active. Cut-off read from the data, not from the text of the source: active = activity change below about -85%; inactive = the rest. Many of the other results were omitted from the sample, so actives are more common in it than they were.
Labels: t = active, f = inactive

[[record]]
compound = "OC[C@@H]1[C@@H](c2ccc(F)cc2)C(c2ccccc2)=NN1c1ccccc1"
answer_label = "f"

[[record]]
compound = "FC(F)(F)c1cccc(NC(=S)NCc2ccc(Cl)cc2)c1"
answer_label = "f"

[[record]]
compound = "N#C/C(=C1/CCCCCN1)c1nc2ccccc2[nH]1"
answer_label = "f"

[[record]]
compound = "C#CCOCCOCCOCCNc1nc(N2CCN(C(=O)CCCCCCCCCCNC(=O)[C@H](CCCCN)n3cc(CCCC(=O)O)nn3)CC2)nc(N2CCN(C(=O)CCCCCCCCCCNC(=O)[C@H](CCCN=C(N)N)n3cc(C[C@@H](C)CC)nn3)CC2)n1"
answer_label = "t"

[[record]]
compound = "Cn1c(=O)c2c(nc(NC3CCCCC3)n2CC(=O)C23CC4CC(CC(C4)C2)C3)n(C)c1=O"
answer_label = "t"

[[record]]
compound = "COc1ccc(CNC(=O)Nc2cccc(C(F)(F)F)c2)cc1OC"
answer_label = "t"

[[record]]
compound = "OC[C@@H]1[C@@H](c2ccc(F)cc2)C(c2cccc(Cl)c2)=NN1c1ccccc1"
answer_label = "f"

[[record]]
compound = "Cn1c(=O)c2c(nc(SCC(=O)N3CCCCCC3)n2C)n(C)c1=O"
answer_label = "f"

[[record]]
compound = "OC[C@@H]1[C@@H](c2ccc(Cl)cc2)C(c2ccc(F)cc2)=NN1c1ccccc1"
answer_label = "f"

[[record]]
compound = "Cc1cccc(C2=NN(c3ccccc3)[C@H](CO)[C@H]2c2ccccc2)c1"
answer_label = "t"

[[record]]
compound = "O=C1OCCN1C(=O)[C@H]1[C@H](c2ccccc2)C(c2cccc(Cl)c2)=NN1c1ccccc1"
answer_label = "f"

[[record]]
compound = "CN(c1ccccc1C(=O)NCc1ccccn1)S(C)(=O)=O"
answer_label = "f"

[[record]]
compound = "Cc1cccc(N2O[C@H]3C=CC2CCCC3)n1"
answer_label = "f"

[[record]]
compound = "Cc1cccc(C2=NN(c3ccccc3)[C@H](CO)[C@H]2c2ccc(F)cc2)c1"
answer_label = "f"

[[record]]
compound = "OC[C@@H]1[C@@H](c2ccccc2)C(c2cccc(Cl)c2)=NN1c1ccccc1"
answer_label = "t"

[[record]]
compound = "CCn1c(CC(=O)Nc2ccc(C)cc2)nnc1SCC(=O)NCc1ccccc1"
answer_label = "f"

[[record]]
compound = "CC(=O)Cc1nsc(NC(=O)c2ccc(-c3cccc(C(F)(F)F)c3)o2)n1"
answer_label = "f"

[[record]]
compound = "O=C(CCS(=O)(=O)c1cccc2nonc12)Nc1cccc2c1CCCC2"
answer_label = "f"

[[record]]
compound = "COc1ccccc1CNC(=O)C1(NC(=O)Nc2ccc(C)cc2)CCCCC1"
answer_label = "t"

[[record]]
compound = "Fc1ccc(OCc2nn3cnnc3s2)cc1"
answer_label = "f"

[[record]]
compound = "O=C1CC(c2nc3ccccc3[nH]2)CN1c1ccccc1 (stereo not given)"
answer_label = "f"

[[record]]
compound = "COc1ccc(COC(=O)Nc2cc3c(C(F)(F)F)nn(C)c3s2)cc1"
answer_label = "f"

[[record]]
compound = "Fc1ccc(CNC(=S)Nc2cccc(C(F)(F)F)c2)cc1"
answer_label = "f"

[[record]]
compound = "COCCNC(=O)CN(C)S(=O)(=O)c1ccc2c(c1)OCCO2"
answer_label = "f"

[[record]]
compound = "CCOc1ccc(-n2c(SCC(=O)NCc3ccco3)nc3c(c2=O)SCC3)cc1"
answer_label = "f"

[[record]]
compound = "OC[C@@H]1[C@@H](c2ccc(Cl)cc2)C(c2ccccc2)=NN1c1ccccc1"
answer_label = "f"

[[record]]
compound = "COc1ccc(NC(=O)C(=O)NCCN2CCN(C(=O)C(c3ccccc3)c3ccccc3)CC2)cc1"
answer_label = "f"

[[record]]
compound = "C#CCOCCOCCOCCNc1nc(N2CCN(C(=O)CCCCCCCCCCNC(=O)[C@H](CCCCN)n3cc(CCO)nn3)CC2)nc(N2CCN(C(=O)CCCCCCCCCCNC(=O)[C@H](CCCN=C(N)N)n3cc(C[C@@H](C)CC)nn3)CC2)n1"
answer_label = "t"

[[record]]
compound = "O=C(NCc1ccc2c(c1)CCO2)Nc1cccc(C(F)(F)F)c1"
answer_label = "t"

[[record]]
compound = "Cc1ccc(CNC(=O)/C(C#N)=C\\c2ccc(N(C)C)cc2)cc1"
answer_label = "f"

[[record]]
compound = "FC(F)(F)c1cccc(NC(=S)NCc2ccccc2)c1"
answer_label = "f"

[[record]]
compound = "OC[C@@H]1[C@@H](c2ccccc2)C(c2ccccc2)=NN1c1ccccc1"
answer_label = "t"

[[record]]
compound = "Cn1nnnc1SCC(=O)Nc1ccc(Oc2ccccc2)cc1"
answer_label = "f"

[[record]]
compound = "OC[C@@H]1[C@@H](c2ccc(Cl)cc2)C(c2cccc(Cl)c2)=NN1c1ccccc1"
answer_label = "t"

[[record]]
compound = "COc1ccc(OC)c(N)c1"
answer_label = "f"

[[record]]
compound = "Cc1cccc(C2=NN(c3ccccc3)[C@H](CO)[C@H]2c2ccc(Cl)cc2)c1"
answer_label = "f"

[[record]]
compound = "COc1ccc(CCNC(=O)c2ccc(Cl)cc2Cl)cc1"
answer_label = "f"

[[record]]
compound = "CC(C)=CCC/C(C)=C/CNC(=O)C[C@H]1C[C@H](C(=O)N(C(C)C)C(C)C)[C@@]2(C)c3[nH]c4cc(-c5ccco5)ccc4c3CCN2C1=O"
answer_label = "f"

[[record]]
compound = "COc1ccc(OC)c(S(=O)(=O)n2nc(C)cc2C)c1"
answer_label = "f"

[[record]]
compound = "CCSc1nc(N)c2c(C)c(C)sc2n1"
answer_label = "f"

